assayed.system: PRMT5/MEP50 complex (Homo sapiens, UniProt O14744)
Sequence (O14744 whole entry, the tested form may be a part): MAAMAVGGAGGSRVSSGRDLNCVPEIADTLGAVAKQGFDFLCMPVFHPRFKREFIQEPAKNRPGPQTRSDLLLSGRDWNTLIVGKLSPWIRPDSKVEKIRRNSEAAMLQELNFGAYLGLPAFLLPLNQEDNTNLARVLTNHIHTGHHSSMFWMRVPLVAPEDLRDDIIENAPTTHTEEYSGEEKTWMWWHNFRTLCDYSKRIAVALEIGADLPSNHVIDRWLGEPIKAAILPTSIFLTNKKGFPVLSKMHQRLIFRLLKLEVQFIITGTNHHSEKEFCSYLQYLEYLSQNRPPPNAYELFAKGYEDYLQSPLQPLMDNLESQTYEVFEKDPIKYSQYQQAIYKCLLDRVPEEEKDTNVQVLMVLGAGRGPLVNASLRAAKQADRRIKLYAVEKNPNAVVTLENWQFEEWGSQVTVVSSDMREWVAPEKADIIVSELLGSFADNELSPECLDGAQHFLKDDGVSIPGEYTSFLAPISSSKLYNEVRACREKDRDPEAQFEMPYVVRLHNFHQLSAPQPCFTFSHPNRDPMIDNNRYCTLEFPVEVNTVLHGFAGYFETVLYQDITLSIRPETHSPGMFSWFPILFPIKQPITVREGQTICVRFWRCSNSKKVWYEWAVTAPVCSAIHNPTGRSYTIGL
Sequence (Q9BQA1 whole entry, further chain, the tested form may be a part): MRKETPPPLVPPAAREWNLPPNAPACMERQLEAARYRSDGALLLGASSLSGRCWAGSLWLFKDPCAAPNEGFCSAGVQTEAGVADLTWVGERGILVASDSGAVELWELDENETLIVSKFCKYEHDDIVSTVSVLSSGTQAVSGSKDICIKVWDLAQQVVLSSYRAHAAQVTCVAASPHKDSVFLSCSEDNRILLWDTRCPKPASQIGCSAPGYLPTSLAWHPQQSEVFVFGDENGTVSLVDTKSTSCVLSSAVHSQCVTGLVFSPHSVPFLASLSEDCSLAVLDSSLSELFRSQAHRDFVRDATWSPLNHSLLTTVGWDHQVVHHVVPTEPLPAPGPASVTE
experiment.notes: Inhibition of recombinant human fetal brain FLAG-tagged PRMT5/full length human testis 6His-tagged MEP50 expressed in baculovirus infected insect Sf9 cells using human histone H4 (1 to 15 residues) as substrate preincubated for 30 mins followed by [3H]-SAM addition
pIC50: −log10 of the molar value.
Each entry below carries its reported pIC50.

- molecule: "CN(C)c1cccnc1OCC(=O)NCC(O)CN1CCc2ccccc2C1 (stereo unspecified)"
  assayed.system: "PRMT5/MEP50 complex (Homo sapiens, UniProt O14744)"
  pIC50: "< 5.00"
- molecule: "CC(Oc1cccc(CNC2CCCC2)c1)C(O)CN1CCc2ccccc2C1 (stereo unspecified)"
  assayed.system: "PRMT5/MEP50 complex (Homo sapiens, UniProt O14744)"
  pIC50: "6.00 to 7.00"
- molecule: "O=C(COc1ccc2cnn(C3CCNCC3)c2c1)NCC(O)CN1CCc2ccccc2C1 (stereo unspecified)"
  assayed.system: "PRMT5/MEP50 complex (Homo sapiens, UniProt O14744)"
  pIC50: "> 7.00"
- molecule: "O=C(CC1CCCCC1)NC[C@H](O)CN1CCc2ccccc2C1"
  assayed.system: "PRMT5/MEP50 complex (Homo sapiens, UniProt O14744)"
  pIC50: "5.00 to 6.00"
- molecule: "COc1ccc(Cn2ccc(-c3ccc(OC[C@H](O)CN4CCc5ccccc5C4)cc3)n2)cc1"
  assayed.system: "PRMT5/MEP50 complex (Homo sapiens, UniProt O14744)"
  pIC50: "5.00 to 6.00"
- molecule: "CC(=O)N1CCN(c2ccccc2OCC(=O)NCC(O)CN2CCc3ccccc3C2)CC1 (stereo unspecified)"
  assayed.system: "PRMT5/MEP50 complex (Homo sapiens, UniProt O14744)"
  pIC50: "> 7.00"
- molecule: "O=C(Cc1cccc2cccnc12)NCC(O)CN1CCc2ccccc2C1 (stereo unspecified)"
  assayed.system: "PRMT5/MEP50 complex (Homo sapiens, UniProt O14744)"
  pIC50: "6.00 to 7.00"
- molecule: "OC(COc1cccc(CN2CCCCC2)c1)CN1CCc2ccccc2C1 (stereo unspecified)"
  assayed.system: "PRMT5/MEP50 complex (Homo sapiens, UniProt O14744)"
  pIC50: "5.00 to 6.00"
- molecule: "OC(CNc1cccc(-c2cccc3[nH]cnc23)c1)CN1CCc2ccccc2C1 (stereo unspecified)"
  assayed.system: "PRMT5/MEP50 complex (Homo sapiens, UniProt O14744)"
  pIC50: "6.00 to 7.00"
- molecule: "Cc1ncc2ccc(-c3cccc(OCC(O)CN4CCc5ccccc5C4)c3)cn12 (stereo unspecified)"
  assayed.system: "PRMT5/MEP50 complex (Homo sapiens, UniProt O14744)"
  pIC50: "> 7.00"
- molecule: "CN1CCC(n2ncc3ccc(OCC(=O)NCC(O)CN4CCc5ccccc5C4)cc32)CC1 (stereo unspecified)"
  assayed.system: "PRMT5/MEP50 complex (Homo sapiens, UniProt O14744)"
  pIC50: "> 7.00"
- molecule: "CC(=O)c1ccc(-c2cccc(OCC(O)CN3CCc4ccccc4C3)c2)cc1 (stereo unspecified)"
  assayed.system: "PRMT5/MEP50 complex (Homo sapiens, UniProt O14744)"
  pIC50: "6.00 to 7.00"
- molecule: "OC(COc1ccc2c(c1)OCO2)CN1CCc2ccccc2C1 (stereo unspecified)"
  assayed.system: "PRMT5/MEP50 complex (Homo sapiens, UniProt O14744)"
  pIC50: "5.00 to 6.00"
- molecule: "O=C(COc1ccccc1C1CCNCC1)NCC(O)CN1CCc2ccccc2C1 (stereo unspecified)"
  assayed.system: "PRMT5/MEP50 complex (Homo sapiens, UniProt O14744)"
  pIC50: "> 7.00"
- molecule: "NS(=O)(=O)c1ccc(OCC(=O)NCC(O)CN2CCc3ccccc3C2)cc1 (stereo unspecified)"
  assayed.system: "PRMT5/MEP50 complex (Homo sapiens, UniProt O14744)"
  pIC50: "5.00 to 6.00"
- molecule: "CC(=O)Nc1cncc(OCC(=O)NCC(O)CN2CCc3ccccc3C2)c1 (stereo unspecified)"
  assayed.system: "PRMT5/MEP50 complex (Homo sapiens, UniProt O14744)"
  pIC50: "< 5.00"
- molecule: "CC(=O)N1CCC(n2cnc3ccc(-c4ccnc(NCC(O)CN5CCc6ccccc6C5)c4)cc32)CC1 (stereo unspecified)"
  assayed.system: "PRMT5/MEP50 complex (Homo sapiens, UniProt O14744)"
  pIC50: "6.00 to 7.00"
- molecule: "Cn1cnc2ccc(-c3cccc(OCC(O)CN4Cc5ccccc5C(F)(F)C4)c3)cc21 (stereo unspecified)"
  assayed.system: "PRMT5/MEP50 complex (Homo sapiens, UniProt O14744)"
  pIC50: "< 5.00"
- molecule: "Cn1cnc2ccc(-c3ccnc(NCC(O)CN4CCc5ccccc5C4)c3)cc21 (stereo unspecified)"
  assayed.system: "PRMT5/MEP50 complex (Homo sapiens, UniProt O14744)"
  pIC50: "> 7.00"
- molecule: "O=C(NCC(O)CN1CCc2ccccc2C1)c1cccc(-c2cc[nH]n2)c1 (stereo unspecified)"
  assayed.system: "PRMT5/MEP50 complex (Homo sapiens, UniProt O14744)"
  pIC50: "> 7.00"
- molecule: "Cn1cnc2ccc(-c3cc(NCC(O)CN4CCc5ccccc5C4)n[nH]3)cc21 (stereo unspecified)"
  assayed.system: "PRMT5/MEP50 complex (Homo sapiens, UniProt O14744)"
  pIC50: "6.00 to 7.00"
